- Test system: TK-10 renal
- experiment: NCI tumour cell line growth inhibition, 48 h
Kindly supply the reported log10(TGI) values for the records listed here.
Short version: log10 scale, TGI, µM.

Q: Reported log10(TGI) for TK-10 renal, given c1cc2c(s1)SSSSS2 ?
Result: 1.53

Q: Reported log10(TGI) for TK-10 renal, given NCCCOc1cc2ccccc2cc1C(=O)NCCOc1nc2ccccc2cc1C(=O)Nc1ccc(Cl)cc1O ?
Result: 0.44

Q: Reported log10(TGI) for TK-10 renal, given C=C1C(=O)O[C@H]2[C@H]1CC/C(COC(=O)/C=C/C(=O)NCc1ccc(Cn3c(=O)sn(-c4ccccc4)c3=O)cc1)=C\CC[C@@]1(C)O[C@@H]21 ?
Result: 0.59

Q: Reported log10(TGI) for TK-10 renal, given CN(C)CCNc1ccc2nnn3c4ccccc4c(=O)c1c23 ?
Result: 1.10

Q: Reported log10(TGI) for TK-10 renal, given [N-]=[N+]=Nc1c(Cc2ccccc2)c(=O)oc2ccccc12 ?
Result: 1.78

Q: Reported log10(TGI) for TK-10 renal, given O=C(NN1C(=O)C(Cl)C1c1ccc(O)cc1)c1ccccc1O (configuration not stated) ?
Result: 1.85

Q: Reported log10(TGI) for TK-10 renal, given CO[C@@H]1C[C@H](OC(N)=O)[C@@H]2C=C[C@@H]3/C=C(C)/C=C/[C@@H](C)[C@H]([C@H](C)[C@H](O)[C@@H](C)NC(C)=O)OC(=O)/C=C/C=C(C)\C=C\[C@]3(C)[C@@H]2C1 ?
Result: 0.55

Q: Reported log10(TGI) for TK-10 renal, given CC(=O)NS(=O)(=O)c1ccc(-n2nc(-c3ccc(Cl)cc3)cc2-c2cc(O)ccc2O)cc1 ?
Result: 1.97

Q: Reported log10(TGI) for TK-10 renal, given COc1cc2ccnc(C=O)c2cc1OC ?
Result: 1.64

Q: Reported log10(TGI) for TK-10 renal, given O=C1C(c2c(O)[nH]c3ccc([N+](=O)[O-])cc23)=Nc2ccccc21 ?
Result: 1.85

Q: Reported log10(TGI) for TK-10 renal, given CC/C=C/C[C@H](O[Si](C)(C)C(C)(C)C)[C@H]1C[C@H]2O[C@H]([C@@H](O)C#C[Si](C)(C)C)C[C@H]2O1 ?
Result: 1.48

Q: Reported log10(TGI) for TK-10 renal, given CC(=O)O[C@H]1C(=O)[C@@]2(C)[C@H]([C@H](OC(=O)c3ccccc3)[C@]3(O)C[C@H](OC(=O)[C@H](O)[C@@H](NC(=O)c4ccccc4)c4ccccc4C)C(C)=C1C3(C)C)[C@]1(OC(C)=O)CO[C@@H]1C[C@@H]2O ?
Result: 1.28

Q: Reported log10(TGI) for TK-10 renal, given COC1=CC(=Nc2c(Cl)cc(Cl)cc2OC(=O)c2ccc([N+](=O)[O-])cc2)C=C(OC)C1=O ?
Result: 1.57

Q: Reported log10(TGI) for TK-10 renal, given CCC(CC)c1nc(Nc2cccc(OC)c2)c2ccccc2n1 ?
Result: 1.25

Q: Reported log10(TGI) for TK-10 renal, given O=C(COc1nc2ccccc2nc1-c1ccccc1)Nc1ccc(Cl)cc1 ?
Result: 1.89

Q: Reported log10(TGI) for TK-10 renal, given COc1ccc(CC(C)=C(c2ccc(OCCN3CCCCCC3)cc2)c2ccc(OCCN3CCCCCC3)cc2)cc1 ?
Result: 0.17

Q: Reported log10(TGI) for TK-10 renal, given COc1ccc(-c2cc(-c3ccccc3)nc(SCCCC(=O)NO)n2)cc1OC ?
Result: 0.95
